Data provenance is patent US20240360228A1.

TARGET OR SYSTEM: T1, human chemokine (C-C motif) receptor 8 (CCR8) (human, UniProt P51685 1-355)
T1 construct: On human peripheral blood lymphocytes / PBMC (native) or on human CCR8 GFP-transfected Ba/F3 cells; also called hCCR8; human CCR8
T1 sequence (P51685 whole entry): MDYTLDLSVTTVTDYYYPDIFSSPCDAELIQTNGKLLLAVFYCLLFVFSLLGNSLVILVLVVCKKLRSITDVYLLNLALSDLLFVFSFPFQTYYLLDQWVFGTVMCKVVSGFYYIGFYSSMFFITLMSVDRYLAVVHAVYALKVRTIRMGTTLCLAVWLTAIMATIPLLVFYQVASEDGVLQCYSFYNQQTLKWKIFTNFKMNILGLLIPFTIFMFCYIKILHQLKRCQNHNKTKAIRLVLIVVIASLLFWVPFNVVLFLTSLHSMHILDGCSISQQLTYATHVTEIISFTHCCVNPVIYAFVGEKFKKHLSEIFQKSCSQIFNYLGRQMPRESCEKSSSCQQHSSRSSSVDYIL
MEASUREMENT DESCRIPTION: flow cytometry blocking, PBMC CCR8+ CD4+ cells; competitor PE-AB13 (its MFI is read)
Method: For blocking studies, 100 μL of the cell suspension were incubated with 10 μg purified isotype control, AB1, AB2, AB3, AB4, AB5, AB8, AB9, AB10, AB11, AB12, AB13, AB14, AB15, and Commercial ABI antibodies, or isotype control, as blocking agents. […]
READOUT TYPE: % Blocking (%)
Express your answer in %, writing the number without its unit.

Reference set (3 entries):
{"BINDER": "AB8 (antibody, V domains shown, Hybridoma monoclonal; also called antibody 8; clone 8) VH: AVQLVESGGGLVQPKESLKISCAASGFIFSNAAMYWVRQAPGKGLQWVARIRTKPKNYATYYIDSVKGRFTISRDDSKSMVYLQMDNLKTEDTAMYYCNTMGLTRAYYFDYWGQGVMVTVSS VL: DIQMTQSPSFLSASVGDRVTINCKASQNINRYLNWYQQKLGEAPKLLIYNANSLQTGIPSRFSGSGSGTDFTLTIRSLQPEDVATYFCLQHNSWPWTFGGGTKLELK", "ASSAY RESULT": 33.4}
{"BINDER": "AB3 (antibody, V domains shown, Hybridoma monoclonal; also called antibody 3; clone 3) VH: QVQLKESGPGLVKPSETLSLTCTVSGFSLTSYHISWVRQPPGKGLEWMGVIWGDGKTTYNSALKSRLSISRDTSKSQVFLKMNSLKTEDTATYYCARGGDSGFAYWGQGTLVTVSS VL: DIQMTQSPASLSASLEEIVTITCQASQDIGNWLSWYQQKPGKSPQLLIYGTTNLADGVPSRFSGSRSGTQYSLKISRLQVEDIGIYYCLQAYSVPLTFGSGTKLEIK", "ASSAY RESULT": 7.12}
{"BINDER": "AB13 (antibody, V domains shown, Hybridoma monoclonal; also called antibody 13; clone 13) VH: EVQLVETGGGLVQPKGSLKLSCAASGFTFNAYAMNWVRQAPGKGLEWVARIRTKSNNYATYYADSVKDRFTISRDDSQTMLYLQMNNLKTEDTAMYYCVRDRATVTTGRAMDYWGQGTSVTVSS VL: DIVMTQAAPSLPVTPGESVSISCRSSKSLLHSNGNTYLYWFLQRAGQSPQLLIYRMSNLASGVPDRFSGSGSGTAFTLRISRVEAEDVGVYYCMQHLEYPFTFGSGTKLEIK", "ASSAY RESULT": 27.4}

Could you now consider this next binder?
*Q* # get_value(readout='% Blocking', item= AB1 (antibody, V domains shown, Hybridoma monoclonal (mice or rats immunised); Used purified and PE-conjugated; also called antibody 1; clone 1) VH: QVQLKESGPGLVKPSETLSLTCTVSGFSLTSYHISWVRQPPGKGLEWMGVIWGDGSKTYNSALKSRLSISRDTSKSQVFLKMRSLKTEDTATYYCARGGDSGFAYWGQGTLVTVSS VL: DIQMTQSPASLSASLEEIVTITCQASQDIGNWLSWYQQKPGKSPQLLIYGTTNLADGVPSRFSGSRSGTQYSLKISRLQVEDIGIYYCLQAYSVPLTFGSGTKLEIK )
*A* 1.62
